Target: HLA-A*02:01
Experiment: IEDB peptide-MHC binding, purified MHC/competitive/fluorescence; filed as Kd, often an IC50 or EC50 that approximates it; bounds were set here for any values at or beyond the usual limits of such assays
Details: source organism: Ectromelia virus
pKd: −log10 of the molar value.
Readout: pKd

Which measured pKd value corresponds to VIARTHTAL ? ≤ 4.70

###

Target: HLA-A*02:17
Experiment: IEDB peptide-MHC binding, purified MHC/competitive/radioactivity; filed as Kd, often an IC50 or EC50 that approximates it; bounds were set here for any values at or beyond the usual limits of such assays
Settings: source organism: Dengue virus 1 Singapore/S275/1990
Readout: pKd
Keep it numeric: pKd is minus log10 of the concentration in mol/L.

Use the examples below as a reference point.
Which measured pKd value corresponds to MLLILCTSQI ? 6.74

Which measured pKd value corresponds to GLLCVMASSV ? 6.82

Which measured pKd value corresponds to LLMLLPTAL ? 7.94

Continue with the next sequence.
Which measured pKd value corresponds to TLTAAVLMLV ? 5.97

###

Target: HLA-A*11:01
Experiment: IEDB peptide-MHC binding, purified MHC/competitive/radioactivity; filed as Kd, often an IC50 or EC50 that approximates it; bounds were set here for any values at or beyond the usual limits of such assays
Conditions: source organism: Mammarenavirus machupoense
Readout: Kd

Use the examples below as a reference point.
Which measured Kd value corresponds to SSVSVLMKEH ? ≥ 31 µM

Which measured Kd value corresponds to EKFGHFCKYH ? ≥ 69.7 µM

Continue with the next sequence.
Which measured Kd value corresponds to LNNSFYYMR ? 5.88 µM

###

Biological target: HLA-A*11:01
Test: IEDB peptide-MHC binding, purified MHC/competitive/fluorescence; bounds were set here for any values at or beyond the usual limits of such assays
Settings: source organism: Sudan ebolavirus
Readout: IC50

Which measured IC50 value corresponds to SMPLGVVTN ? ≥ 163 µM

Continue with the next sequence.
Which measured IC50 value corresponds to NCYNLEIKK ? ≥ 72.4 µM

###

Molecular target: HLA-B*46:01
Assay: IEDB peptide-MHC binding, purified MHC/direct/fluorescence; filed as Kd, often an IC50 or EC50 that approximates it; bounds were set here for any values at or beyond the usual limits of such assays
Settings: source organism: Vibrio vulnificus YJ016
Readout: Kd

Which measured Kd value corresponds to MKYVWPPIM ? ≥ 20 µM

###

Target: HLA-B*57:01
Assay: IEDB peptide-MHC binding, purified MHC/direct/fluorescence; filed as Kd, often an IC50 or EC50 that approximates it; bounds were set here for any values at or beyond the usual limits of such assays
Details: source organism: Vibrio vulnificus YJ016
pKd: −log10 of the molar value.
Readout: pKd

Could you share what pKd was measured for MKYVWPPIM , tested on HLA-B*57:01? ≤ 4.70

###

Target: HLA-A*31:01
Experiment: IEDB peptide-MHC binding, purified MHC/competitive/radioactivity; filed as Kd, often an IC50 or EC50 that approximates it; bounds were set here for any values at or beyond the usual limits of such assays
Details: source organism: Mammarenavirus juninense
Readout: Kd

Which measured Kd value corresponds to VFFTASLFLH ? 0.318 µM

###

Target: HLA-B*51:01
Experiment: IEDB peptide-MHC binding, purified MHC/competitive/fluorescence; filed as Kd, often an IC50 or EC50 that approximates it; bounds were set here for any values at or beyond the usual limits of such assays
Details: source organism: Reston ebolavirus - Reston (1989)
Readout: Kd

Could you share what Kd was measured for GRYNLVPPK , tested on HLA-B*51:01? ≥ 20 µM

###

Target: HLA-B*07:02
Experiment: IEDB peptide-MHC binding, purified MHC/direct/fluorescence; filed as Kd, often an IC50 or EC50 that approximates it; bounds were set here for any values at or beyond the usual limits of such assays
Settings: source organism: Mycobacterium tuberculosis
pKd: −log10 of the molar value.
Readout: pKd

Which measured pKd value corresponds to QQDTNSAGL ? ≤ 4.70

###

Molecular target: HLA-B*18:01
Assay: IEDB peptide-MHC binding, purified MHC/direct/fluorescence; filed as Kd, often an IC50 or EC50 that approximates it; bounds were set here for any values at or beyond the usual limits of such assays
Conditions: source organism: Vibrio vulnificus YJ016
pKd: −log10 of the molar value.
Readout: pKd

Could you share what pKd was measured for MKYVWPPIM , tested on HLA-B*18:01? ≤ 4.70

###

Target: HLA-A*03:01
Assay: IEDB peptide-MHC binding, purified MHC/competitive/fluorescence; filed as Kd, often an IC50 or EC50 that approximates it; bounds were set here for any values at or beyond the usual limits of such assays
Conditions: source organism: Yersinia pestis Nepal516
Readout: pKd
Keep it numeric: pKd is minus log10 of the concentration in mol/L.

Which measured pKd value corresponds to RLCRFRKSK ? 6.92

###

Biological target: HLA-A*30:02
Assay: IEDB peptide-MHC binding, purified MHC/competitive/radioactivity; filed as Kd, often an IC50 or EC50 that approximates it; bounds were set here for any values at or beyond the usual limits of such assays
Conditions: source organism: SARS coronavirus Tor2
Criterion met if Kd is below 0.04 µM. Criterion not met if not; exact matches included in Criterion not met.

Please review the entries below; each comes with its answer.
# check: Kd < 0.04 µM for GSIIQFPNTY Criterion not met

# check: Kd < 0.04 µM for GYTMHANYIF Criterion not met

# check: Kd < 0.04 µM for NYLRKRVMF Criterion not met

Others:
# check: Kd < 0.04 µM for FFTYLCGFI Criterion not met

# check: Kd < 0.04 µM for LFARTRSMW Criterion not met

# check: Kd < 0.04 µM for AYSNRNRFL Criterion not met

# check: Kd < 0.04 µM for AFIDTIKSL Criterion not met

# check: Kd < 0.04 µM for LVSTQEFRY Criterion met

# check: Kd < 0.04 µM for FSAVGNICY Criterion met

# check: Kd < 0.04 µM for FFVYENAFL Criterion not met

###

Biological target: HLA-B*40:01
Test: IEDB peptide-MHC binding, purified MHC/competitive/radioactivity; filed as Kd, often an IC50 or EC50 that approximates it; bounds were set here for any values at or beyond the usual limits of such assays
Conditions: source organism: Mammarenavirus choriomeningitidis
Readout: pKd
Keep it numeric: pKd is minus log10 of the concentration in mol/L.

Use the examples below as a reference point.
Which measured pKd value corresponds to EDQFLPFMS ? 5.25

Which measured pKd value corresponds to REGLLNYSM ? 5.92

Continue with the next sequence.
Which measured pKd value corresponds to AEQLMSLAA ? 5.73

###

Molecular target: HLA-B*18:01
Assay: IEDB peptide-MHC binding, purified MHC/competitive/fluorescence; filed as Kd, often an IC50 or EC50 that approximates it; bounds were set here for any values at or beyond the usual limits of such assays
Conditions: source organism: Neembucu hantavirus
pKd: −log10 of the molar value.
Readout: pKd

Which measured pKd value corresponds to ILYMLSWGK ? ≤ 4.70

###

Target: HLA-B*07:02
Assay: IEDB peptide-MHC binding, purified MHC/competitive/radioactivity; filed as Kd, often an IC50 or EC50 that approximates it; bounds were set here for any values at or beyond the usual limits of such assays
Details: source organism: Mammarenavirus guanaritoense
Readout: Kd

Which measured Kd value corresponds to LPNTLVFQA ? ≥ 38.3 µM

###

Molecular target: HLA-B*44:03
Experiment: IEDB peptide-MHC binding, purified MHC/competitive/radioactivity; filed as Kd, often an IC50 or EC50 that approximates it; bounds were set here for any values at or beyond the usual limits of such assays
Details: source organism: Dengue virus 2 Jamaica/1409/1983
# Kd per record follows
Your answer should be a number followed by the unit of measure.

Which measured Kd value corresponds to KETACLGKSY ? 23.6 nM

Which measured Kd value corresponds to SEMIIPKNFA ? 25 nM

Continue with the next sequence.
Which measured Kd value corresponds to TEMGRLPTFM ? 167 nM

###

Molecular target: HLA-A*01:01
Assay: IEDB peptide-MHC binding, purified MHC/direct/fluorescence; filed as Kd, often an IC50 or EC50 that approximates it; bounds were set here for any values at or beyond the usual limits of such assays
Settings: source organism: Mammarenavirus lassaense
Readout: Kd

Which measured Kd value corresponds to IEEVMNIVL ? ≥ 20 µM

###

Target: HLA-A*02:17
Test: IEDB peptide-MHC binding, purified MHC/competitive/radioactivity; filed as Kd, often an IC50 or EC50 that approximates it; bounds were set here for any values at or beyond the usual limits of such assays
Details: source organism: Dengue virus 3 China/80-2/1980
Readout: pKd
Keep it numeric: pKd is minus log10 of the concentration in mol/L.

Use the examples below as a reference point.
Could you share what pKd was measured for LMMMLPATL , tested on HLA-A*02:17? 6.64

Could you share what pKd was measured for MMMLPATLA , tested on HLA-A*02:17? 6.97

Others:
Could you share what pKd was measured for SLCLMMMLPA , tested on HLA-A*02:17? 4.93
